biological target: hu c-20S β5c-subunit (Homo sapiens, UniProt P20618+P28074); test: N,C-capped dipeptides IC50, succ-LLVY-AMC fluorescence assay
Catalogue of pIC50 values
Quick note: pIC50 values are minus log10 of concentrations in mol/L.

In [3]: df
Out[3]:
                                smiles_data  readout_value
0  COC[C@H](NC(=O)[C@H](CC(=O)NOC(C)(C)C)NC(=O)CN1CCOCC1)C(=O)NCc1cccc2ccccc12           4.71
1  COC[C@H](NC(=O)CCc1ccccc1)C(=O)N[C@@H](C)C(=O)NCc1cccc2ccccc12           4.22

Turning now to a further molecule:
State measured pIC50 of the molecule CC(C)(C)NC(=O)CC[C@H](NC(=O)CCc1ccccc1)C(=O)N[C@@H](Cc1ccc(F)cc1)C(=O)NCc1cccc2ccccc12 with hu c-20S β5c-subunit (Homo sapiens, UniProt P20618+P28074).
6.52

* * *

Reported pKi values for a set of molecules
target: hu i-20S β5i (Homo sapiens, UniProt P20618+P28062); assay: Kinetic parameters of oxathiazolones vs hu i-20S β5i; assay type: biochemical; conditions: Hu20S β5i; read-out: KI
Lab note — pKi values are minus log10 of concentrations in M.

>>> print(df.to_string())
            smiles_data  value_kind  readout_value
0  O=c1oc(-c2ccccn2)ns1         pKi           5.70

Now for the molecule whose pKi we want.
Report pKi for Cc1sc(-c2nsc(=O)o2)cc1[N+](=O)[O-]
6.12

* * *

molecular target: hu i-20S β5i-subunit (Homo sapiens, UniProt P20618+P28062); assay: N,C-capped dipeptides IC50, Ac-ANW-AMC fluorescence assay; type: biochemical; conditions: Hu c-20S over Hu i-20S
Form field: SI (selectivity index) (one value per entry).
Keep the answer to the number alone.

Examples from the recorded data:
>>> df
                                smiles_data              value_kind  readout_value
0  COC[C@H](NC(=O)[C@H](CC(=O)NOC(C)(C)C)NS(=O)(=O)c1ccc(C)cc1)C(=O)NCc1cccc2ccccc12  SI (selectivity index)            139
1  COC[C@H](NC(=O)[C@H](CC(=O)NOC(C)(C)C)NC(=O)CCCc1ccccc1)C(=O)NCc1cccc2ccccc12  SI (selectivity index)            118
2  CC(C)[C@H](NC(=O)[C@H](CC(=O)NOC(C)(C)C)NC(=O)CCc1ccccc1)C(=O)NCc1cccc2ccccc12  SI (selectivity index)             53

Provide one value: measured SI (selectivity index) of COC[C@H](NC(=O)[C@H](CC(=O)NOC(C)(C)C)NC(=O)Cc1ccccc1)C(=O)NCc1cccc2ccccc12
70

Please report SI (selectivity index) for the following compound: Cc1ccc(S(=O)(=O)N[C@@H](CC(=O)NOC(C)(C)C)C(=O)N[C@@H](C)C(=O)NCc2cccc3ccccc23)cc1
88

Look up and state reported SI (selectivity index) for CC(C)(C)NC(=O)CC[C@H](NC(=O)CCc1ccccc1)C(=O)N[C@@H](Cc1ccc(F)cc1)C(=O)NCc1cccc2ccccc12
90

In one line, give reported SI (selectivity index) of the entry C[C@H](NC(=O)[C@H](CC(=O)NOC(C)(C)C)NC(=O)CCc1ccccc1)C(=O)NCc1ccnc2ccccc12 .
9.3

* * *

Consider the following compounds and their measured IC50 readings.
target: hu i-20S β5i-subunit (Homo sapiens, UniProt P20618+P28062); test: N,C-capped dipeptides IC50, Ac-ANW-AMC fluorescence assay

Known results for compounds:
>>> df
                                smiles_data  readout_value
0  C[C@H](NC(=O)[C@H](CC(=O)NOC(C)(C)C)NC(=O)CCc1ccccc1)C(=O)NCc1cccc2ncccc12        1370 nM
1  COC[C@H](NC(=O)[C@H](CC(=O)NOC(C)(C)C)NC(=O)Cc1ccccc1)C(=O)NCc1cccc2ccccc12          11 nM
2  COC[C@H](NC(=O)CCc1ccccc1)C(=O)N[C@@H](Cc1ccc(F)cc1)C(=O)NCc1cccc2ccccc12    > 100000 nM
3  CC(C)(C)NC(=O)C[C@H](NC(=O)CCc1ccccc1)C(=O)N[C@@H](Cc1ccc(F)cc1)C(=O)NCc1cccc2ccccc12         5.3 nM

Please find the next compound below.
Specify measured IC50 for CC(C)(C)NC(=O)C[C@H](NC(=O)CCc1ccccc1)C(=O)N[C@@H](Cc1ccc(F)cc1)C(=O)NCc1cccc(-c2ccccc2)c1 .
26 nM

* * *

test system: Karpas 1106p cells; assay: Cytotoxicity (LD50) against Karpas lymphoma cells; type: cell-based, human; conditions: Table 4
Value kind: LD50 Karpas (µM)
Express the result in µM but write the number alone.

Worked examples follow.
In [3]: df
Out[3]:
                                   compound  readout_value
0  CC(C)(C)ONC(=O)C[C@H](NC(=O)CCc1ccccc1)C(=O)N[C@@H](Cc1ccc(F)cc1)C(=O)NCc1cccc2ccccc12 [DPLG-3]           2.04
1  C[C@H](NC(=O)[C@H](CC(=O)NOC(C)(C)C)NC(=O)CCc1ccccc1)C(=O)NCc1cccc2[nH]ccc12 [DPLG-2083]          0.254
2  C[C@H](NC(=O)[C@H](CC(=O)NOC(C)(C)C)NC(=O)CCc1ccccc1)C(=O)NCc1cccc2ccccc12 [DPLG-2058]           34.4

For the compound COC[C@H](NC(=O)[C@H](CC(=O)NOC(C)(C)C)NC(=O)CCc1ccccc1)C(=O)NCc1cccc2ccccc12 [DPLG-2086] , give its measured LD50 Karpas value.
0.46

Item C[C@H](NC(=O)[C@H](CC(=O)NOC(C)(C)C)NC(=O)C(F)(F)F)C(=O)NCc1cccc2ccccc12 [DPLG-2106] : provide LD50 Karpas
7.8

For the compound COC[C@H](NC(=O)[C@H](CC(=O)NOC(C)(C)C)NC(=O)CCc1ccccc1)C(=O)NCc1cccc(OC)c1 [DPLG-2160] , report LD50 Karpas.
0.05

Retrieve LD50 Karpas measured for COC[C@H](NC(=O)[C@H](CC(=O)NOC(C)(C)C)NS(=O)(=O)c1ccc(C)cc1)C(=O)NCc1cccc2ccccc12 [DPLG-2150] and print it.
0.8

For the compound CC(C)C[C@H](NC(=O)[C@H](Cc1ccccc1)NC(=O)c1cnccn1)B(O)O [Bortezomib, reference compound] , give its measured LD50 Karpas value.
0.0017

Let me know recorded LD50 Karpas for Cc1ccc(S(=O)(=O)N[C@@H](CC(=O)NOC(C)(C)C)C(=O)N[C@@H](C)C(=O)NCc2cccc3ccccc23)cc1 [DPLG-2091] , thanks.
5.3

Provide LD50 Karpas value for the following compound: C[C@H](NC(=O)[C@H](CC(=O)NC1COC1)NC(=O)CCc1ccccc1)C(=O)NCc1cccc2ccccc12 [DPLG-2130]
67.8

* * *

tested on: Karpas 1106p cells; experiment: Cytotoxicity (LD50) against Karpas lymphoma cells; assay type: cell-based, human; settings: Table 3
A collection of compounds and their measured LD50

Solved cases (5 shown):
In [3]: df
Out[3]:
                                smiles_data   system_under_test  value_kind  readout_value
0  COC[C@H](NC(=O)[C@H](CC(=O)NC(C)(C)C)NC(=O)c1cc(C)on1)C(=O)NCc1cccc2ccccc12  Karpas 1106p cells        LD50        2.20 µM
1  CC(C)[C@H](NC(=O)[C@H](CC(=O)NOC(C)(C)C)NC(=O)CCc1ccccc1)C(=O)NCc1cccc2ccccc12  Karpas 1106p cells        LD50        >100 µM
2  COC[C@H](NC(=O)CCc1ccccc1)C(=O)N[C@@H](Cc1ccc(F)cc1)C(=O)NCc1cccc2ccccc12  Karpas 1106p cells        LD50        >100 µM
3  COC[C@H](NC(=O)[C@H](CC(=O)NC1COC1)NS(=O)(=O)c1ccc(C)cc1)C(=O)NCc1cccc2ccccc12  Karpas 1106p cells        LD50        >100 µM
4  COC[C@H](NC(=O)CCc1ccccc1)C(=O)N[C@@H](C)C(=O)NCc1cccc2ccccc12  Karpas 1106p cells        LD50        >100 µM

For Cc1ccc(S(=O)(=O)N[C@@H](CCC(=O)NC(C)(C)C)C(=O)N[C@@H](C)C(=O)NOc2ccccc2)cc1 , write its LD50.
6.33 µM

Quickly give me recorded LD50 for C[C@H](NC(=O)[C@H](CC(=O)NOC(C)(C)C)NC(=O)c1cnccn1)C(=O)NCc1cccc2ccccc12
>100 µM

The measurements presented in this section are drawn from patent USRE49816E1.
